assay: in vitro; details: Beagle, dog, dog plasma diluted 1:1 with PBS, pH 7.4, stability to plasma proteases (half-life), in hours
Non-standard residues stand in square brackets, D forms with d. Residues, ends and D or L forms follow the SMILES beside them. N(1-naphthylmethyl)Gly = O=C(O)CNCc1cccc2ccccc12; N(4-MeBn)Gly = Cc1ccc(CNCC(=O)O)cc1; NBuGly = CCCCNCC(=O)O
Recorded Endpoint: half-life (min)
Please state the figure in min; there is no need to write the unit.

What does the data say about its half-life? Entry: CCCCN(CC(=O)N[C@@H](CCCCN)C(=O)N(CC(=O)N(CC(=O)N(CC(N)=O)Cc1cccc2ccccc12)Cc1ccc(C)cc1)Cc1cccc2ccccc12)C(=O)[C@H](CCCCN)NC(=O)[C@@H](N)CCCCN [Compound B1] (H-KK[NBuGly]K[N(1-naphthylmethyl)Gly][N(4-MeBn)Gly][N(1-naphthylmethyl)Gly]-NH2) 30

###

experiment: in vitro; settings: dog, liver microsomes
Non-standard residues stand in square brackets, D forms with d. Residues, ends and D or L forms follow the SMILES beside them. N(1-naphthylmethyl)Gly = O=C(O)CNCc1cccc2ccccc12; N(4-MeBn)Gly = Cc1ccc(CNCC(=O)O)cc1; NBuGly = CCCCNCC(=O)O; Nlys = NCCCCNCC(=O)O
Recorded Endpoint: half-life

What does the data say about its half-life? Entry: CCCCN(CC(N)=O)C(=O)CN(CCCCN)C(=O)CN(Cc1cccc2ccccc12)C(=O)CN(CCCCN)C(=O)CN(Cc1ccc(C)cc1)C(=O)CN(Cc1cccc2ccccc12)C(=O)CN(CCCCN)C(=O)CNCCCCN [Compound D2] (H-[Nlys][Nlys][N(1-naphthylmethyl)Gly][N(4-MeBn)Gly][Nlys][N(1-naphthylmethyl)Gly][Nlys][NBuGly]-NH2) > 2 h

###

experiment: in vitro; details: human, liver microsomes
Non-standard residues stand in square brackets, D forms with d. Residues, ends and D or L forms follow the SMILES beside them. N(1-naphthylmethyl)Gly = O=C(O)CNCc1cccc2ccccc12; N(4-MeBn)Gly = Cc1ccc(CNCC(=O)O)cc1; NBuGly = CCCCNCC(=O)O; Nlys = NCCCCNCC(=O)O
Recorded Endpoint: half-life

What does the data say about its half-life? Entry: CCCCN(CC(N)=O)C(=O)CN(CCCCN)C(=O)CN(Cc1cccc2ccccc12)C(=O)CN(CCCCN)C(=O)CN(Cc1ccc(C)cc1)C(=O)CN(Cc1cccc2ccccc12)C(=O)CN(CCCCN)C(=O)CNCCCCN [Compound D2] (H-[Nlys][Nlys][N(1-naphthylmethyl)Gly][N(4-MeBn)Gly][Nlys][N(1-naphthylmethyl)Gly][Nlys][NBuGly]-NH2) > 2 h

###

assay: in vitro; conditions: liver microsomes
Non-standard residues stand in square brackets, D forms with d. Residues, ends and D or L forms follow the SMILES beside them. N(1-naphthylmethyl)Gly = O=C(O)CNCc1cccc2ccccc12; N(4-MeBn)Gly = Cc1ccc(CNCC(=O)O)cc1; NBuGly = CCCCNCC(=O)O; Nlys = NCCCCNCC(=O)O
Recorded Endpoint: remaining at 1 h, 1 µM (%)
Please state the figure in %; there is no need to write the unit.

{"columns": ["Molecule", "Measurement Unit", "Experimental Value"],
 "data": [
  ["CCCCN(CC(N)=O)C(=O)CN(CCCCN)C(=O)CN(Cc1cccc2ccccc12)C(=O)CN(CCCCN)C(=O)CN(Cc1ccc(C)cc1)C(=O)CN(Cc1cccc2ccccc12)C(=O)CN(CCCCN)C(=O)CNCCCCN [Compound D2] (H-[Nlys][Nlys][N(1-naphthylmethyl)Gly][N(4-MeBn)Gly][Nlys][N(1-naphthylmethyl)Gly][Nlys][NBuGly]-NH2)", "%", 77]
]}

Next up:
What does the data say about its remaining at 1 h, 1 µM? Entry: CCCCN(CC(=O)N[C@@H](CCCCN)C(=O)N(CC(=O)N(CC(=O)N(CC(N)=O)Cc1cccc2ccccc12)Cc1ccc(C)cc1)Cc1cccc2ccccc12)C(=O)[C@H](CCCCN)NC(=O)[C@@H](N)CCCCN [Compound B1] (H-KK[NBuGly]K[N(1-naphthylmethyl)Gly][N(4-MeBn)Gly][N(1-naphthylmethyl)Gly]-NH2) 100

###

assay: in vitro; settings: Beagle, dog, plasma, pH 7.4, Half-life in plasma (dog), dog plasma, 37 °C, incubation up to 60 min, LC-MS/MS
Non-standard residues stand in square brackets, D forms with d. Residues, ends and D or L forms follow the SMILES beside them. N(1-naphthylmethyl)Gly = O=C(O)CNCc1cccc2ccccc12; N(4-MeBn)Gly = Cc1ccc(CNCC(=O)O)cc1; NBuGly = CCCCNCC(=O)O; Nlys = NCCCCNCC(=O)O
Recorded Endpoint: half-life

What does the data say about its half-life? Entry: CCCCN(CC(N)=O)C(=O)CN(CCCCN)C(=O)CN(Cc1cccc2ccccc12)C(=O)CN(CCCCN)C(=O)CN(Cc1ccc(C)cc1)C(=O)CN(Cc1cccc2ccccc12)C(=O)CN(CCCCN)C(=O)CNCCCCN [Compound D2] (H-[Nlys][Nlys][N(1-naphthylmethyl)Gly][N(4-MeBn)Gly][Nlys][N(1-naphthylmethyl)Gly][Nlys][NBuGly]-NH2) > 2 h

###

test: in vitro; settings: human, liver microsomes
Non-standard residues stand in square brackets, D forms with d. Residues, ends and D or L forms follow the SMILES beside them. N(1-naphthylmethyl)Gly = O=C(O)CNCc1cccc2ccccc12; N(4-MeBn)Gly = Cc1ccc(CNCC(=O)O)cc1; NBuGly = CCCCNCC(=O)O
Recorded Endpoint: half-life at 1 µM

What does the data say about its half-life at 1 µM? Entry: CCCCN(CC(=O)N[C@@H](CCCCN)C(=O)N(CC(=O)N(CC(=O)N(CC(N)=O)Cc1cccc2ccccc12)Cc1ccc(C)cc1)Cc1cccc2ccccc12)C(=O)[C@H](CCCCN)NC(=O)[C@@H](N)CCCCN [Compound B1] (H-KK[NBuGly]K[N(1-naphthylmethyl)Gly][N(4-MeBn)Gly][N(1-naphthylmethyl)Gly]-NH2) > 2 h

###

Assay: Plasma protein binding, rapid equilibrium dialysis
Format: in vitro ADME, dog
Details: Beagle, dog, plasma, pH 7.4, Bound to plasma proteins
Method: The plasma protein binding properties of candidate drugs can influence their efficacy, safety, and distribution. The fraction of peptoid bound to proteins of plasma collected from dogs was determined using rapid equilibrium dialysis. Plate inserts comprised two side-by-side chambers separated by a dialysis membrane (8K MWCO). The chambers contained […] plasma or 350 µL dialysis buffer (PBS buffer pH 7.4), respectively. Dogplasma lot was identical to the one used in the plasma stability assay. […]
Non-standard residues stand in square brackets, D forms with d. Residues, ends and D or L forms follow the SMILES beside them. N(1-naphthylmethyl)Gly = O=C(O)CNCc1cccc2ccccc12; N(4-MeBn)Gly = Cc1ccc(CNCC(=O)O)cc1; NBuGly = CCCCNCC(=O)O; Nlys = NCCCCNCC(=O)O
Recorded Endpoint: fraction unbound at 4 h, 30.8 µM

What does the data say about its fraction unbound at 4 h, 30.8 µM? Entry: CCCCN(CC(N)=O)C(=O)CN(CCCCN)C(=O)CN(Cc1cccc2ccccc12)C(=O)CN(CCCCN)C(=O)CN(Cc1ccc(C)cc1)C(=O)CN(Cc1cccc2ccccc12)C(=O)CN(CCCCN)C(=O)CNCCCCN [Compound D2] (H-[Nlys][Nlys][N(1-naphthylmethyl)Gly][N(4-MeBn)Gly][Nlys][N(1-naphthylmethyl)Gly][Nlys][NBuGly]-NH2) < 0.02

###

molecular target: UniProt P00760; experiment: Stability to proteases: trypsin; conditions: isolated enzyme trypsin
Sequence (P00760 24-246): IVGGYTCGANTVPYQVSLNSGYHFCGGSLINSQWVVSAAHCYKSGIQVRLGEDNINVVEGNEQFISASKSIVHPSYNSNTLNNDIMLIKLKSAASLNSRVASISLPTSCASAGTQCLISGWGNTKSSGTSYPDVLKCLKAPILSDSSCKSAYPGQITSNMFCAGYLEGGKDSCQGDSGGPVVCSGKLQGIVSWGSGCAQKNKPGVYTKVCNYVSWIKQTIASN
Non-standard residues stand in square brackets, D forms with d. Residues, ends and D or L forms follow the SMILES beside them. N(1-naphthylmethyl)Gly = O=C(O)CNCc1cccc2ccccc12; N(4-MeBn)Gly = Cc1ccc(CNCC(=O)O)cc1; NBuGly = CCCCNCC(=O)O
Recorded Endpoint: metabolised at 24 h, 1 mg/mL (%)
Please state the figure in %; there is no need to write the unit.

I'm curious: which metabolised at 24 h, 1 mg/mL was measured for CCCCN(CC(=O)N[C@@H](CCCCN)C(=O)N(CC(=O)N(CC(=O)N(CC(N)=O)Cc1cccc2ccccc12)Cc1ccc(C)cc1)Cc1cccc2ccccc12)C(=O)[C@H](CCCCN)NC(=O)[C@@H](N)CCCCN [Compound B1] (H-KK[NBuGly]K[N(1-naphthylmethyl)Gly][N(4-MeBn)Gly][N(1-naphthylmethyl)Gly]-NH2) tested on UniProt P00760? 6

###

test: Plasma protein binding, rapid equilibrium dialysis; type: in vitro ADME, dog; conditions: Beagle, dog, plasma, pH 7.4, % Unbound (free fraction)
Non-standard residues stand in square brackets, D forms with d. Residues, ends and D or L forms follow the SMILES beside them. N(1-naphthylmethyl)Gly = O=C(O)CNCc1cccc2ccccc12; N(4-MeBn)Gly = Cc1ccc(CNCC(=O)O)cc1; NBuGly = CCCCNCC(=O)O; Nlys = NCCCCNCC(=O)O
Recorded Endpoint: fraction unbound at 4 h, 30.8 µM
Just the number, please, no unit attached.

{"columns": ["Compound", "Experimental Value"],
 "data": [
  ["CCCCN(CC(=O)N[C@@H](CCCCN)C(=O)N(CC(=O)N(CC(=O)N(CC(N)=O)Cc1cccc2ccccc12)Cc1ccc(C)cc1)Cc1cccc2ccccc12)C(=O)[C@H](CCCCN)NC(=O)[C@@H](N)CCCCN [Compound B1] (H-KK[NBuGly]K[N(1-naphthylmethyl)Gly][N(4-MeBn)Gly][N(1-naphthylmethyl)Gly]-NH2)", 0.0016]
]}

Next up:
What does the data say about its fraction unbound at 4 h, 30.8 µM? Entry: CCCCN(CC(N)=O)C(=O)CN(CCCCN)C(=O)CN(Cc1cccc2ccccc12)C(=O)CN(CCCCN)C(=O)CN(Cc1ccc(C)cc1)C(=O)CN(Cc1cccc2ccccc12)C(=O)CN(CCCCN)C(=O)CNCCCCN [Compound D2] (H-[Nlys][Nlys][N(1-naphthylmethyl)Gly][N(4-MeBn)Gly][Nlys][N(1-naphthylmethyl)Gly][Nlys][NBuGly]-NH2) 0.0143
